- TEST SYSTEM: TNKS1 (Homo sapiens, UniProt O95271)
- EXPERIMENT: TNKS1/PARP Biochemical Assay (TNKS1)
Kindly state IC50 for each of the entries shown.

Quick request: IC50 for each listed item, please.
1. Cc1cccc2c(=O)[nH]c(-c3ccc(CN4C[C@H]5CNC[C@H]5C4)cc3)cc12
2. CN1CCC(N(C)S(=O)(=O)c2ccc(-c3cc4c(Cl)cccc4c(=O)[nH]3)cc2)CC1
3. CN(C)CCOc1ccc(-c2cc3c(Br)cccc3c(=O)[nH]2)cc1
4. Cc1cccc2c(=O)[nH]c(-c3ccc(N4CCN(CCO)CC4)nc3)cc12
5. Cc1cccc2c(=O)[nH]c(-c3ccc(C(=O)N(C)C4CCN(C)C4)cc3)cc12 (single isomer, unassigned) [IQ-205-1]
6. Cc1cc(F)cc2c(=O)[nH]c(-c3ccc(C(=O)N(C)C4CCN(C)C4)cc3)cc12 (centres unmarked) [IQ-197]

A.
< 50 nM
< 500 nM
< 500 nM
< 20 nM
< 50 nM
< 20 nM

Quick request: IC50 for each listed item, please.
1. Cc1cc(F)cc2c(=O)[nH]c(-c3ccc(C(=O)N(C)C4CCCN(C)C4)cc3)cc12 (centres unmarked)
2. O=C(c1ccc(-c2cc3c(F)cc(F)cc3c(=O)[nH]2)cc1)N1CCN(CCO)CC1

A.
1: < 50 nM; 2: < 50 nM

###

- TEST SYSTEM: TNKS1 (Homo sapiens)
- EXPERIMENT: TNKS1/PARP Biochemical Assay (TNKS1)
pIC50: −log10 of the molar value.
Kindly state pIC50 for each of the entries shown.

Solved cases below.
Cc1cccc2c(=O)[nH]c(-c3ccc(C(=O)N(C)CC4CCOCC4)cc3)cc12 = > 7.70
O=c1[nH]c(-c2ccc(N3CCN(CCO)CC3)nc2)cc2c(Cl)cccc12 = > 7.30
COCC#Cc1cccc2c(=O)[nH]c(-c3ccc(OCCN(C)C)cc3)cc12 = > 6.30
Cc1cccc2c(=O)[nH]c(-c3ccc(C(=O)N(C)C4CCN(C)C4)cc3)cc12 (single isomer, unassigned) [IQ-205-2] = > 7.70
Cc1cccc2c(=O)[nH]c(-c3ccc(CN4CCNC(=O)C4)cc3F)cc12 = > 6.30
Cc1cccc2c(=O)[nH]c(-c3ccc(Cn4cnc5ccccc54)cc3)cc12 = > 6.30

Quick request: pIC50 for each listed item, please.
1. Cc1cccc2c(=O)[nH]c(-c3ccc(C(=O)N4CC(N(C)C)C4)cc3)cc12
2. Cc1cccc2c(=O)[nH]c(-c3ccc(C(=O)N4CCC(N(C)C)CC4)cc3)cc12

A.
> 6.30
> 7.30

Quick request: pIC50 for each listed item, please.
1. Cc1cc(F)cc2c(=O)[nH]c(-c3ccc(C(=O)N(C)C4CCNC4)cc3)cc12 (centres unmarked)
2. Cc1cccc2c(=O)[nH]c(-c3ccc(Cn4cccn4)cc3)cc12
3. Cc1cccc2c(=O)[nH]c(-c3cnc(N4CCN(C(=O)C5CC5)CC4)nc3)cc12
4. CN(CC1CCNCC1)C(=O)c1ccc(-c2cc3c(Cl)cccc3c(=O)[nH]2)cc1
5. Cc1cccc2c(=O)[nH]c(-c3ccc(CN4C[C@@H]5CN(C(=O)OC(C)(C)C)C[C@@H]5C4)cc3)cc12
6. Cc1cc(F)cc2c(=O)[nH]c(-c3ccc(C(=O)N(C)C4CCN(C)C4)cc3)cc12 (single isomer, unassigned) [IQ-207-2]
7. CC(C)(C)OC(=O)N1CCN(Cc2ccc(-c3cc4c(F)cc(F)cc4c(=O)[nH]3)cc2)CC1
8. Cc1cccc2c(=O)[nH]c(-c3ccc(C(=O)N4CCN(CC5CC5)CC4)cn3)cc12

A.
> 6.30
> 7.70
7.29
> 7.30
> 6.30
> 7.30
> 6.30
7.12

###

Kindly state IC50 for each of the entries shown.
- TEST SYSTEM: TNKS1 (Homo sapiens, UniProt O95271)
- EXPERIMENT: TNKS1/PARP Biochemical Assay (TNKS1)

Cc1cccc2c(=O)[nH]c(-c3ccc(S(=O)(=O)N(C4CC4)C4CCN(C)CC4)cc3)cc12 = < 500 nM
CC(C)(C)OC(=O)N1CCN(c2ccc(-c3cc4c(Cl)cccc4c(=O)[nH]3)cn2)CC1 = < 500 nM
Cc1cccc2c(=O)[nH]c(-c3ccc(OCCN4CCCC4)cc3)cc12 = < 50 nM
COCCN(CCOC)C(=O)c1ccc(-c2cc3c(C)cccc3c(=O)[nH]2)cc1 = < 50 nM

// switching to the query compound
Q. Using the record for Cc1ccc(F)c2c(=O)[nH]c(-c3cnc(C(=O)N4CCN(C)CC4)nc3)cc12 , report its IC50.
A. < 500 nM

###

- TEST SYSTEM: TNKS1 (Homo sapiens, UniProt O95271)
- EXPERIMENT: TNKS1/PARP Biochemical Assay (TNKS1)
pIC50: −log10 of the molar value.
Kindly state pIC50 for each of the entries shown.

O=c1[nH]c(-c2ccc(S(=O)(=O)N3CCNCC3)cc2)cc2c(Cl)cccc12 = > 7.30
Cc1cccc2c(=O)[nH]c(-c3ccc(C(=O)N4CCN(CC5CC5)CC4)cc3F)cc12 = > 6.30
Cc1cccc2c(=O)[nH]c(-c3ccc(S(=O)(=O)N(C)CC4CCN(C)CC4)cc3)cc12 = > 7.30
Cc1cccc2c(=O)[nH]c(-c3ccc(C(=O)N4CCN(C)CC4)cc3)cc12 = > 7.70

Quick request: pIC50 for each listed item, please.
1. Cc1cccc2c(=O)[nH]c(-c3ccc(CN4CC(C)(O)C4)cc3)cc12
2. O=c1[nH]c(-c2ccc(CN3CCNCC3)cc2)cc2c(Cl)cccc12
3. Cc1cccc2c(=O)[nH]c(-c3ccc(CCN4CCCC4)cc3)cc12
4. O=C(C1CC1)N1CCN(c2ncc(-c3cc4c(O)cccc4c(=O)[nH]3)cn2)CC1 [REF-6, reference compound]
5. Cc1cccc2c(=O)[nH]c(-c3ccc(C(=O)N4CCOCC4)cc3)cc12
6. Cc1cc(F)cc2c(=O)[nH]c(-c3ccc(C(=O)N4CC(N(C)C)C4)cc3)cc12
7. Cc1cccc2c(=O)[nH]c(-c3ccc(CN4CCN5CCCC5C4)cc3)cc12 (centres unmarked)

A.
1. > 7.70
2. > 7.30
3. > 6.30
4. 7.62
5. > 7.70
6. > 7.30
7. > 7.30

###

- TEST SYSTEM: TNKS1 (Homo sapiens)
- EXPERIMENT: TNKS1/PARP Biochemical Assay (TNKS1)
pIC50: −log10 of the molar value.
READOUT KIND: pIC50

Solved cases below.
CC(C)(C)OC(=O)N1CCN(Cc2ccc(-c3cc4c(F)ccc(F)c4c(=O)[nH]3)cc2)CC1 = > 6.30
Cc1cccc2c(=O)[nH]c(-c3ccc(CN4CCNC(C)C4)cc3)cc12 (single isomer, unassigned) [IQ-084-1] = > 7.30
Cc1cccc2c(=O)[nH]c(-c3ccc(S(=O)(=O)N(C)CCN(C)C)cc3)cc12 = > 7.70

Q. Using the record for Cc1cccc2c(=O)[nH]c(-c3ccc(Cn4cccc4)cc3)cc12 , report its pIC50.
A. > 6.30

###

- TEST SYSTEM: TNKS1 (Homo sapiens, UniProt O95271)
- EXPERIMENT: TNKS1/PARP Biochemical Assay (TNKS1)
READOUT KIND: IC50

Solved cases below.
O=c1[nH]c(-c2ccc(CN3CCNCC3)cc2)cc2c(Br)cccc12 [IQ-150] = < 500 nM
CNCCOc1ccc(-c2cc3c(C)cccc3c(=O)[nH]2)cc1 [IQ-127] = < 50 nM
Cc1cccc2c(=O)[nH]c(-c3ccc(C(=O)N(C)C4CCN(C)CC4)nc3)cc12 [IQ-099] = < 20 nM

// switching to the query compound
Q. Using the record for CN(C)C1CCN(c2ccc(-c3cc4c(Cl)cccc4c(=O)[nH]3)cn2)C1 (stereo not shown) [IQ-009] , report its IC50.
A. < 500 nM
